# tested-target: Neuronal acetylcholine receptor subunit alpha-7 (Homo sapiens)
# Sequence (P36544 whole entry): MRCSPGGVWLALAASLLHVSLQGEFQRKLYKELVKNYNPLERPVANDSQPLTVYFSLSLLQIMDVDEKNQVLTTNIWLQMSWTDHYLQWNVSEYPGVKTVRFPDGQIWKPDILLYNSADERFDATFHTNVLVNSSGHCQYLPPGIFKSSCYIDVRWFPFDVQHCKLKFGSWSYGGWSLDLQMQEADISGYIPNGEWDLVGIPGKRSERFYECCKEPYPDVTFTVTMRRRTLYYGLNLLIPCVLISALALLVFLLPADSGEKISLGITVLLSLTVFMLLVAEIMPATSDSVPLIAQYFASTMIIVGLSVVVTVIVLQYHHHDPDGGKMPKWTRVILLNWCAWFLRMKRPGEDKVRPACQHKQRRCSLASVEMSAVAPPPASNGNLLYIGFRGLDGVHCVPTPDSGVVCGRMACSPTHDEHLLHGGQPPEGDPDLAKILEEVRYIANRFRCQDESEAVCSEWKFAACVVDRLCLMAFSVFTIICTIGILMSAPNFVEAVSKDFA
# experiment: Binding affinity to human alpha7 nAChR
measured-metric: pKi
Worth noting: pKi values are minus log10 of concentrations stated in mol/L.

Ask: Answer with the recorded pKi of c1ccc(-c2cnc3c(c2)C[C@@]2(CN4CCC2CC4)O3)cc1 only.
Result: 8.70

###

# tested-target: Neuronal acetylcholine receptor subunit alpha-7 (Rattus norvegicus, UniProt Q05941)
# Sequence (Q05941 whole entry): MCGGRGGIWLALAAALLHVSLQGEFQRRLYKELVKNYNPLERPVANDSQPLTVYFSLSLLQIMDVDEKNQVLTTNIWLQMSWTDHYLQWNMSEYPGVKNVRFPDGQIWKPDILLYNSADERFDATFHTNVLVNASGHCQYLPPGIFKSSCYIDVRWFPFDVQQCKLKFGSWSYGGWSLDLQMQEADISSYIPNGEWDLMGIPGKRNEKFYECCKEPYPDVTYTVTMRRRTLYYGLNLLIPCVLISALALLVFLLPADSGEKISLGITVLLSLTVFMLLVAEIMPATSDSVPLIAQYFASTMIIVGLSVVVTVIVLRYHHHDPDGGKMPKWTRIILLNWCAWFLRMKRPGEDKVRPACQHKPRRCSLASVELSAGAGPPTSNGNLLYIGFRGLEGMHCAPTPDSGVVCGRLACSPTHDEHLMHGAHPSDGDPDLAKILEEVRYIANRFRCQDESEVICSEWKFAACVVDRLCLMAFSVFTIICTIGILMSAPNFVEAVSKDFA
# experiment: Displacement of [125I]alpha-bungarotoxin from rat alpha7 nAChR expressed in HEK293 cell membranes after 2 hrs by topcount scintillation counting analysis
measured-metric: pKi
Scale: negative log10 of molar concentration, which is what pKi denotes.

Ask: Given c1cnc2c(c1)C[C@@]1(CN3CCC1CC3)O2 , respond with its pKi.
Result: 8.30

###

# tested-target: 5-hydroxytryptamine receptor 3A (Homo sapiens, UniProt P46098)
# Sequence (P46098 whole entry): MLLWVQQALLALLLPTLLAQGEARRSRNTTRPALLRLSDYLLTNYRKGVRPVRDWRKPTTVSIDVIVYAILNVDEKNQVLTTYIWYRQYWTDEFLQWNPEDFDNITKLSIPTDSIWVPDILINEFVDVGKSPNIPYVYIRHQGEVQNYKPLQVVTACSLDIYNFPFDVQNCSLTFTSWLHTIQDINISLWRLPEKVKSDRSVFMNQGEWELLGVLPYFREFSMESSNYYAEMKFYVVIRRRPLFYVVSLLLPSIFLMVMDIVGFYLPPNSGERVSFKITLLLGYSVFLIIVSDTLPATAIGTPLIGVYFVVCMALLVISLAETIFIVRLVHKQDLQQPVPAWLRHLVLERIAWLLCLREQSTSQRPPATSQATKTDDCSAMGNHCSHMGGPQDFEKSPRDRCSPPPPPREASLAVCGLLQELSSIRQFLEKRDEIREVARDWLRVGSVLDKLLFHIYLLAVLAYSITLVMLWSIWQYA
# experiment: Antagonist activity at human 5-HT3A receptor expressed in HEK293 cells assessed as inhibition of 5-HT-induced calcium flux preincubated for 30 mins prior to 5-HT addition by Fluo-4 AM dye based FLIPR assay
I'd appreciate it if you marked entries 1 when IC50 is lower than 40 nM and -1 when it is not.

Ask: Determine whether this compound shows IC50 lower than 40 nM (ties excluded): Clc1cccc2nc3n(c12)C[C@@]1(CN2CCC1CC2)O3
Result: 1

Ask: Please check: IC50 for c1ccc2c(c1)nc1n2C[C@]2(CN3CCC2CC3)O1 , strictly under 40 nM or not?
Result: -1

Ask: Does the reported IC50 of the following compound sit strictly below 40 nM? Brc1nc2n(c1Br)C[C@]1(CN3CCC1CC3)O2
Result: -1

Ask: Confirm or reject: IC50 of Cc1ccc2c(c1)nc1n2C[C@@]2(CN3CCC2CC3)O1 lies strictly below 40 nM
Result: 1

Ask: # check: IC50 < 40 nM for COc1ccc(-c2cccc3c2nc2n3C[C@@]3(CN4CCC3CC4)O2)cc1
Result: -1

Ask: Threshold test, IC50 < 40 nM: Clc1cccc2c1nc1n2C[C@@]2(CN3CCC2CC3)O1
Result: 1

Ask: For Clc1ccc2nc3n(c2c1)C[C@@]1(CN2CCC1CC2)O3 , is the recorded IC50 below the cut-off of 40 nM?
Result: 1

Ask: Quick check: IC50 of COc1ccc2c(c1)nc1n2C[C@@]2(CN3CCC2CC3)O1 under 40 nM?
Result: 1

Ask: Dear reviewer, please state whether c1ccc2c(c1)nc1n2C[C@@]2(CN3CCC2CC3)O1 has IC50 strictly beneath 40 nM.
Result: 1

Ask: Input Brc1nc2n(c1Br)C[C@@]1(CN3CCC1CC3)O2 ; condition: IC50 strictly below 40 nM. Does it hold?
Result: -1

Ask: Consider the compound FC(F)(F)c1cccc2c1nc1n2C[C@@]2(CN3CCC2CC3)O1 . Is its IC50 strictly less than 40 nM?
Result: 1

###

# tested-target: Neuronal acetylcholine receptor subunit alpha-7 (Rattus norvegicus, UniProt Q05941)
# experiment: Agonist activity at rat alpha7 nAChR expressed in HEK293 cells co-expressing human RIC-3 assessed as increase in calcium flux measured for 2 mins by Fluo-4 AM dye based FLIPR assay
measured-metric: EC50 (µM)
I only need the number, in µM, no unit after it.

Ask: Please indicate EC50 recorded for c1ccc2c(c1)nc1n2C[C@@]2(CN3CCC2CC3)O1
Result: 0.011

Ask: Look up and report measured EC50 for this entry: FC(F)(F)c1ccc2c(c1)nc1n2C[C@@]2(CN3CCC2CC3)O1
Result: 0.013

Ask: Kindly indicate its recorded EC50. Item: c1ccc2c(c1)nc1n2C[C@]2(CN3CCC2CC3)O1
Result: 6.4

Ask: Answer with reported EC50 of FC(F)(F)c1cccc2c1nc1n2C[C@@]2(CN3CCC2CC3)O1
Result: 0.022

Ask: // fetch EC50 given entry Brc1nc2n(c1Br)C[C@@]1(CN3CCC1CC3)O2
Result: 0.019

Ask: Return value of EC50 for input Clc1ccc2c(c1)nc1n2C[C@@]2(CN3CCC2CC3)O1 , no commentary.
Result: 0.031

Ask: Provide one value: measured EC50 of COc1ccc(-c2cccc3c2nc2n3C[C@@]3(CN4CCC3CC4)O2)cc1
Result: 0.026

Ask: // Input: Clc1cccc2c1nc1n2C[C@@]2(CN3CCC2CC3)O1 . Output its EC50 only.
Result: 0.016

Ask: Give a short answer stating reported EC50 for Cc1ccc2c(c1)nc1n2C[C@@]2(CN3CCC2CC3)O1 .
Result: 0.005
